Just for reference, ChEMBL document CHEMBL2424656 is where these values come from.

Experiment: Growth inhibition of human U87MG cells after 72 hrs by MTS-PMS assay
Assay type: functional, U-87MG ATCC
Details: U-87 MG
We begin with a simple list: items and their reported GI50.

[
  {
    "compound smiles": "C[C@H](COC(=O)c1cccc(Cl)c1)[C@H]1CC[C@H]2[C@@H](O)CCC[C@]12C",
    "measurement unit": "µM",
    "reading qualifier": "=",
    "GI50": 69
  },
  {
    "compound smiles": "C[C@H](COC(=O)c1ccccc1Cl)[C@H]1CC[C@H]2[C@@H](O)CCC[C@]12C",
    "measurement unit": "µM",
    "reading qualifier": "=",
    "GI50": 46.8
  },
  {
    "compound smiles": "C[C@H](COC(=O)c1ccccc1O)[C@H]1CC[C@H]2[C@@H](O)CCC[C@]12C",
    "measurement unit": "µM",
    "reading qualifier": "=",
    "GI50": 18.8
  },
  {
    "compound smiles": "C[C@H](COC(=O)c1ccc(Cl)cc1)[C@H]1CC[C@H]2[C@@H](O)CCC[C@]12C",
    "measurement unit": "µM",
    "reading qualifier": "=",
    "GI50": 31.4
  },
  {
    "compound smiles": "COc1ccccc1C(=O)OC[C@@H](C)[C@H]1CC[C@H]2[C@@H](O)CCC[C@]12C",
    "measurement unit": "µM",
    "reading qualifier": "=",
    "GI50": 56
  },
  {
    "compound smiles": "C[C@H](COC(=O)c1ccco1)[C@H]1CC[C@H]2[C@@H](O)CCC[C@]12C",
    "measurement unit": "µM",
    "reading qualifier": "=",
    "GI50": 79.1
  },
  {
    "compound smiles": "C[C@H](COC(=O)c1ccc(O)cc1)[C@H]1CC[C@H]2[C@@H](O)CCC[C@]12C",
    "measurement unit": "µM",
    "reading qualifier": "=",
    "GI50": 67
  },
  {
    "compound smiles": "C[C@H](COC(=O)c1ccc2ccccc2c1)[C@H]1CC[C@H]2[C@@H](O)CCC[C@]12C",
    "measurement unit": "µM",
    "reading qualifier": "=",
    "GI50": 51.3
  },
  {
    "compound smiles": "C[C@H](COC(=O)C1CCCC1)[C@H]1CC[C@H]2[C@@H](O)CCC[C@]12C",
    "measurement unit": "µM",
    "reading qualifier": "=",
    "GI50": 21.7
  },
  {
    "compound smiles": "C[C@H](COC(=O)c1cccc2ccccc12)[C@H]1CC[C@H]2[C@@H](O)CCC[C@]12C",
    "measurement unit": "µM",
    "reading qualifier": "=",
    "GI50": 39.2
  },
  {
    "compound smiles": "COc1cccc(C(=O)OC[C@@H](C)[C@H]2CC[C@H]3[C@@H](O)CCC[C@]23C)c1",
    "measurement unit": "µM",
    "reading qualifier": "=",
    "GI50": 15.9
  },
  {
    "compound smiles": "C[C@H](COC(=O)c1ccccc1)[C@H]1CC[C@H]2[C@@H](OC(=O)c3ccccc3)CCC[C@]12C",
    "measurement unit": "µM",
    "reading qualifier": ">",
    "GI50": 100
  },
  {
    "compound smiles": "C[C@H](COC(=O)c1cccnc1)[C@H]1CC[C@H]2[C@@H](O)CCC[C@]12C",
    "measurement unit": "µM",
    "reading qualifier": ">",
    "GI50": 100
  },
  {
    "compound smiles": "C[C@H](COC(=O)C1CC1)[C@H]1CC[C@H]2[C@@H](O)CCC[C@]12C",
    "measurement unit": "µM",
    "reading qualifier": ">",
    "GI50": 100
  },
  {
    "compound smiles": "C[C@H](CNC(=O)c1ccccc1O)[C@H]1CC[C@H]2[C@@H](O)CCC[C@]12C",
    "measurement unit": "µM",
    "reading qualifier": ">",
    "GI50": 100
  },
  {
    "compound smiles": "C[C@H](COC(=O)C1CCC1)[C@H]1CC[C@H]2[C@@H](O)CCC[C@]12C",
    "measurement unit": "µM",
    "reading qualifier": "=",
    "GI50": 27.1
  },
  {
    "compound smiles": "C[C@H](COC(=O)C(C)(C)C)[C@H]1CC[C@H]2[C@@H](O)CCC[C@]12C",
    "measurement unit": "µM",
    "reading qualifier": "=",
    "GI50": 17.1
  }
]
